assay: PTX pharmacokinetics in rats, alone or orally co-administered with compound 4; assay type: in vivo, Sprague-Dawley rats; settings: male, Sprague-Dawley, rat, plasma, PTX 25 mg/kg PO alone (oral control), read-out: t1/2 of PTX (converted)
READOUT_LABEL: half-life (h)

INSERT INTO assay_data (compound_string, readout_label, numeric_result) VALUES
  ('CC(=O)O[C@H]1C(=O)[C@@]2(C)[C@H]([C@H](OC(=O)c3ccccc3)[C@]3(O)C[C@H](OC(=O)[C@H](O)[C@@H](NC(=O)c4ccccc4)c4ccccc4)C(C)=C1C3(C)C)[C@]1(OC(C)=O)CO[C@@H]1C[C@@H]2O', 'half-life', 3.1);

* * *

Assay: PTX pharmacokinetics in rats, alone or orally co-administered with compound 4
Assay type: in vivo, Sprague-Dawley rats
Conditions: male, Sprague-Dawley, rat, plasma, PTX 25 mg/kg PO alone (oral control)
Protocol: All the animal experiments were performed using six-week-old male Sprague-Dawley rats (200–235 g) under the procedures granted by the Ewha Womans University Institutional Animal Care and Use Committee (IACUC) (No. 2012-01-019), Korea. […] Prepared plasma samples mixed with internal standard (4-hydroxybenzoic acid n-hexyl ester) were analyzed by the HPLC system. […]
READOUT_LABEL: Tmax (h)

INSERT INTO measurements (compound_string, reading_unit, numeric_result) VALUES
  ('CC(=O)O[C@H]1C(=O)[C@@]2(C)[C@H]([C@H](OC(=O)c3ccccc3)[C@]3(O)C[C@H](OC(=O)[C@H](O)[C@@H](NC(=O)c4ccccc4)c4ccccc4)C(C)=C1C3(C)C)[C@]1(OC(C)=O)CO[C@@H]1C[C@@H]2O', 'h', 2);

* * *

experiment: PTX pharmacokinetics in rats, alone or orally co-administered with compound 4; assay type: in vivo, Sprague-Dawley rats; conditions: male, Sprague-Dawley, rat, plasma, PTX 2 mg/kg IV (IV control)
READOUT_LABEL: Cmax (ng/mL)

INSERT INTO measurements (compound_string, reading_unit, numeric_result) VALUES
  ('CC(=O)O[C@H]1C(=O)[C@@]2(C)[C@H]([C@H](OC(=O)c3ccccc3)[C@]3(O)C[C@H](OC(=O)[C@H](O)[C@@H](NC(=O)c4ccccc4)c4ccccc4)C(C)=C1C3(C)C)[C@]1(OC(C)=O)CO[C@@H]1C[C@@H]2O', 'ng/mL', 2970);

* * *

Tested on: MCF-7/ADR cells
Assay: Cytotoxicity (toxic effect) of each piperazine derivative alone, SRB assay
Assay type: cell-based, human
Details: 25 μM, 2 h incubation
Experimental: The MDR human breast cancer cell line MCF-7/ADR was maintained in RPMI 1640, supplemented with 2 mM L-glutamine, 10 mM HEPES, 24 mM NaHCO3, 10% fetal bovine serum, and 1% antibiotic-antimycotic agent at 37 °C in a humidified 5% CO2 atmosphere. The cytotoxicity of each piperazine derivative was examined in the cells using the sulforhodamine B (SRB) assay. […] The IC50 values were calculated with the Table Curve Windows program. […]
Listed here are compounds together with their documented cell survival ratio.
READOUT_LABEL: cell survival ratio

INSERT INTO results (compound, numeric_result) VALUES
  ('COc1ccc(CNC(=O)CN(CC(=O)N2CCN(C(c3ccccc3)c3ccc(Cl)cc3)CC2)C(=O)c2ccccc2)cc1 (stereo not drawn) [Compound 5]', 83.46),
  ('O=C(CN(CC(=O)N1CCN(C(c2ccccc2)c2ccc(Cl)cc2)CC1)C(=O)c1ccc2ccccc2c1)NCc1ccccc1 (stereo not drawn) [Compound 1]', 89.23),
  ('CC(C)(C)c1cc(NC(=O)CN(CC(=O)N2CCN(C(c3ccccc3)c3ccc(Cl)cc3)CC2)C(=O)c2ccccc2)no1 (stereo not drawn) [Compound 6]', 100.76);
